Tested on: RAW 264.7 macrophages
Experiment: SAFIRE macrophage assay: host toxicity (adherent macrophage count, morphology)
Type: cell-based
Conditions: 25 uM
Each record here notes measured 25 uM Avg Cell # Score.
API doc: respond with a numeric literal and nothing else, no unit.

OC(COc1c(Cl)cccc1Cl)CN1CCC(Nc2nccc(C(F)(F)F)n2)CC1 (stereo not shown)    44
CC(=O)Nc1cccc(OCC(O)CN2CCC(Nc3nccc(C(F)(F)F)n3)C2)c1 (stereo not shown)    96
COc1ccc(OCC(O)CN2CCC(Nc3nccc(C(F)(F)F)n3)C2)cc1 (stereo not shown)    92
OC(COc1ccccc1Cl)CN1CCC(Nc2nccc(C(F)(F)F)n2)C1 (stereo not shown)    46
OC(COc1cccc2[nH]ccc12)CN1CCC(Nc2nccc(C(F)(F)F)n2)CC1 (stereo not shown)    94

QUERY: Which 25 uM Avg Cell # Score reading was recorded for the compound NC1CCN(CC(O)COc2c(Cl)cccc2Cl)CC1 (stereo not shown) ?
RESULT: 92

QUERY: Note, next up: OC(COc1ccccc1C(F)(F)F)CN1CCC(Nc2nccc(C(F)(F)F)n2)C1 (stereo not shown)
RESULT: 59

QUERY: Now consider O=C1CN(CC(O)COc2ccc(Cl)c(Cl)c2)CCN1 (stereo not shown) and answer again.
RESULT: 97

QUERY: Try N[C@H]1CC[C@H](N2CC(COc3cc(Cl)cc(Cl)c3)OC2=O)CC1 (stereo partly shown) next.
RESULT: 123

QUERY: Check NC1CCN(CC(O)COc2ccc(Cl)cc2Cl)CC1 (stereo not shown) too.
RESULT: 87

###

Tested on: RAW 264.7 macrophages
Assay: SAFIRE macrophage assay: host toxicity (adherent macrophage count, morphology)
Type: cell-based
Conditions: 5 uM
Procedure: In SAFIRE, we used MATLAB software to count the number of macrophages that remain adherent and retain the red fluorescence of MitoTracker, an indicator of voltage across the mitochondrial inner membrane. […] Non-toxic analogs that reduced bacterial load by at least 60% at 5 µM and 25 µM in SAFIRE, as compared with DMSO, progressed and were evaluated in SAFIRE across eight or more concentrations, ranging from 0.001 µM to 50 µM (n = 2). […]
metric: 5 uM Avg Cell # Score
Enter a number only.

Reference set, count: 3
OC(COc1ccccc1Cl)CN1CCC(Nc2nccc(C(F)(F)F)n2)CC1 (stereo not shown)    84
OC(COc1cc(Cl)cc(Cl)c1)CN1CCN(Cc2cccc3ccccc23)CC1 (stereo not shown)    41
OC(COc1ccc(Cl)cc1)CN1CCC(Nc2nccc(C(F)(F)F)n2)C1 (stereo not shown)    89

QUERY: Look up 5 uM Avg Cell # Score: NC1CCN(CC(O)COc2ccccc2Cl)CC1 (stereo not shown)
RESULT: 107

QUERY: // next record OC(COc1ccc(Cl)cc1Br)CN1CCC(Nc2nccc(C(F)(F)F)n2)CC1 (stereo not shown)
RESULT: 74

QUERY: And then Cc1nnc(CN(C)CC(O)COc2ccc(Cl)c(Cl)c2)o1 (stereo not shown) , what is it?
RESULT: 100

QUERY: And what about the compound Cc1cc(CNCC(O)COc2ccc(Cl)c(Cl)c2)sc1C (stereo not shown) ?
RESULT: 75

QUERY: Request: NC1CCN(CC(O)COc2ccc(Cl)c(Cl)c2)CC1 (stereo not shown)
RESULT: 98

QUERY: Same thing, different compound: OC(COc1ccc(Cl)c(Cl)c1)CN1CCN(C2CC2)CC1 (stereo not shown)
RESULT: 102

QUERY: Also need OC(COc1ccc(Cl)c(Cl)c1)CN1CCC(Nc2nccs2)CC1 (stereo not shown) , thanks.
RESULT: 123
